Assay Overview: Rat pharmacokinetics
Assay type: in vivo, Wistar rats
Test Conditions: male, rat, plasma; Wistar rats, intravenous 2 mg/kg; read-out: Vss
Measured Attribute: Vd (L/kg)

compound_structure=Nc1nnc(CN[C@@H]2C[C@H]2c2ccc(OCc3ccccc3)cc2)o1 result=1.2

###

Assay Overview: Rat pharmacokinetics
Assay type: in vivo, Wistar rats
Test Conditions: male, Wistar, rat, plasma, po, 5.6 mg/kg/day, Wistar rats, oral drinking water 0.25mg/ml (5,6 mg/kg)
Measured Attribute: Cmax (ng/mL)

compound_structure=Nc1nnc(CN[C@@H]2C[C@H]2c2ccc(OCc3ccccc3)cc2)o1 measured_attribute=Cmax result=945

###

Assay Overview: Mouse pharmacokinetics
Type: in vivo, BALB/c mice
Test Conditions: male, mouse, plasma; BALB/c mice, oral 10 mg/kg; read-out: Plasma AUCinf
Measured Attribute: AUC(0-inf) (ng·h/mL)

compound_structure=Nc1nnc(CN[C@@H]2C[C@H]2c2ccc(OCc3ccccc3)cc2)o1 measured_attribute=AUC(0-inf) result=17200

###

Assay Overview: Rat pharmacokinetics
Assay type: in vivo, Wistar rats
Test Conditions: male, rat, plasma; Wistar rats, intravenous 2 mg/kg
Measured Attribute: clearance (mL/min/kg)

compound="Nc1nnc(CN[C@@H]2C[C@H]2c2ccc(OCc3ccccc3)cc2)o1 [ORY-2001, vafidemstat]" measured_attribute=clearance unit_info=mL/min/kg result=8.5

###

Assay Overview: Rat pharmacokinetics
Type: in vivo, Wistar rats
Test Conditions: male, Wistar, rat, plasma, po, 10 mg/kg, Wistar rats, oral gavage 10 mg/kg (second gavage column, gavage vs drinking water study); read-out: Plasma AUClast
Measured Attribute: AUC(0-t) (ng·h/mL)

compound_structure=Nc1nnc(CN[C@@H]2C[C@H]2c2ccc(OCc3ccccc3)cc2)o1 result=32900

###

Assay Overview: Mouse pharmacokinetics
Assay type: in vivo, BALB/c mice
Test Conditions: male, mouse, plasma; BALB/c mice, oral 10 mg/kg
Protocol: Temperature and humidity were maintained at 22 ± 3 °C and 40-70 %, respectively and illumination was controlled to give a sequence of 12 hr light / dark cycle. The temperature and humidity were recorded by auto-controlled data logger system. […] Compound levels from 3 samples per timepoint (for a given dose and route of administration), were used to calculated pharmacokinetic parameters using the non-compartmental analysis tool of WinNonlin® Enterprise software (Pharsight Corp., USA; version 5.2).
Measured Attribute: Cmax (ng/mL)

compound="Nc1nnc(CN[C@@H]2C[C@H]2c2ccc(OCc3ccccc3)cc2)o1 [ORY-2001, vafidemstat]" result=4160

###

Target Or System: KDM1A (Homo sapiens, UniProt O60341)
Assay Overview: KDM1A inhibition assay (Amplex Red, dimethylH3K4 peptide)
Type: biochemical
Parameters: purchased BPS Bioscience 50100
Test Conditions: rKDM1A; N = 1, n = 2; read-out: IC50 KDM1A, representative dose-response curve
Measured Attribute: IC50 (nM)

compound_structure=Nc1nnc(CN[C@@H]2C[C@H]2c2ccc(OCc3ccccc3)cc2)o1 unit_info=nM result=105

###

Assay Overview: Rat pharmacokinetics
Format: in vivo, Wistar rats
Test Conditions: male, Wistar, rat, plasma, po, 10 mg/kg, Wistar rats, oral drinking water, dose normalized to 10 mg/Kg; read-out: Plasma AUCinf
Measured Attribute: AUC(0-inf) (ng·h/mL)

compound="Nc1nnc(CN[C@@H]2C[C@H]2c2ccc(OCc3ccccc3)cc2)o1 [ORY-2001, vafidemstat]" result=21700

###

Assay Overview: Rat pharmacokinetics
Assay type: in vivo, Wistar rats
Test Conditions: male, Wistar, rat, plasma, po, 10 mg/kg, Wistar rats, oral drinking water, dose normalized to 10 mg/Kg considering a linear behavior; read-out: Plasma AUClast
Measured Attribute: AUC(0-t) (ng·h/mL)

compound_structure=Nc1nnc(CN[C@@H]2C[C@H]2c2ccc(OCc3ccccc3)cc2)o1 result=21500

###

Assay Overview: Rat pharmacokinetics
Assay type: in vivo, Wistar rats
Test Conditions: male, Wistar, rat, plasma, po, 10 mg/kg, Wistar rats, oral gavage 10 mg/kg
Measured Attribute: Cmax (ng/mL)

compound_structure=Nc1nnc(CN[C@@H]2C[C@H]2c2ccc(OCc3ccccc3)cc2)o1 unit_info=ng/mL result=3400

###

Assay Overview: Mouse pharmacokinetics
Assay type: in vivo, BALB/c mice
Test Conditions: male, mouse, plasma, po; Balb/c mice, p.o. 10 mg/kg; read-out: area-under-the-curve (AUC) (converted)
Measured Attribute: AUC (ng·h/mL)

compound="Nc1nnc(CN[C@@H]2C[C@H]2c2ccc(OCc3ccccc3)cc2)o1 [ORY-2001, vafidemstat]" measured_attribute=AUC unit_info=ng·h/mL result=17200

###

Assay Overview: Rat pharmacokinetics
Format: in vivo, Wistar rats
Test Conditions: male, rat, plasma; Wistar rats, oral gavage 10 mg/kg
Measured Attribute: half-life (h)

compound="Nc1nnc(CN[C@@H]2C[C@H]2c2ccc(OCc3ccccc3)cc2)o1 [ORY-2001, vafidemstat]" unit_info=h result=3.28

###

Target Or System: KDM1A (Homo sapiens)
Assay Overview: KDM1A inhibition assay (Amplex Red, dimethylH3K4 peptide)
Format: biochemical
Set-up: purchased BPS Bioscience 50100
Test Conditions: mean IC50 KDM1A, mean ± SD, minimum 2 independent experiments
Measured Attribute: IC50 (µM)

compound_structure=Nc1nnc(CN[C@@H]2C[C@H]2c2ccc(OCc3ccccc3)cc2)o1 target_or_system="KDM1A (Homo sapiens)" unit_info=µM result=0.101

###

Assay Overview: Mouse pharmacokinetics
Assay type: in vivo, BALB/c mice
Test Conditions: male, mouse, plasma; BALB/c mice, intravenous 2 mg/kg; read-out: Vss
Measured Attribute: Vd (L/kg)

compound_structure=Nc1nnc(CN[C@@H]2C[C@H]2c2ccc(OCc3ccccc3)cc2)o1 measured_attribute=Vd result=1.1

###

Target Or System: Human recombinant MAO-A (Homo sapiens)
Sequence (P21397 1-527): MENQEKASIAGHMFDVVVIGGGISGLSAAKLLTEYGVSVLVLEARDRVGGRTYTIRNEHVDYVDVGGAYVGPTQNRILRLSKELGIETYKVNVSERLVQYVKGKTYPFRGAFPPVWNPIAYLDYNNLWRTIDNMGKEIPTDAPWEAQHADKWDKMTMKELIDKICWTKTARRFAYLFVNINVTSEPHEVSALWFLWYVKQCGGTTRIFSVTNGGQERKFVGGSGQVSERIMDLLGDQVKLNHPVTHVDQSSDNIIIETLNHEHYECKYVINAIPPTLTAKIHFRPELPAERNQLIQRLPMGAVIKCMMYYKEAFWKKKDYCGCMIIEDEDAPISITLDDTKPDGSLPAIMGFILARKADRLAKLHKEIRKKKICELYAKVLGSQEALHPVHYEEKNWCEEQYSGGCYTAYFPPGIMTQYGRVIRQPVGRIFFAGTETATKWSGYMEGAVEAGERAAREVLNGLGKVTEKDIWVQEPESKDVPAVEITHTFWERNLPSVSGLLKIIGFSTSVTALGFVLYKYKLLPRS
Assay Overview: MAO-A kynuramine fluorescent assay
Test Conditions: S1 Table A
Measured Attribute: IC50 (µM)

compound_structure=Nc1nnc(CN[C@@H]2C[C@H]2c2ccc(OCc3ccccc3)cc2)o1 measured_attribute=IC50 unit_info=µM result=5.47

###

Assay Overview: Rat pharmacokinetics
Format: in vivo, Wistar rats
Test Conditions: male, Wistar, rat, plasma, po, 10 mg/kg, Wistar rats, oral drinking water, dose normalized to 10 mg/Kg
Measured Attribute: Tmax (h)

compound="Nc1nnc(CN[C@@H]2C[C@H]2c2ccc(OCc3ccccc3)cc2)o1 [ORY-2001, vafidemstat]" measured_attribute=Tmax unit_info=h result=8.67

###

Assay Overview: Mouse pharmacokinetics
Format: in vivo, BALB/c mice
Test Conditions: male, mouse, plasma; BALB/c mice, intravenous 2 mg/kg; read-out: Plasma AUClast
Measured Attribute: AUC(0-t) (ng·h/mL)

compound="Nc1nnc(CN[C@@H]2C[C@H]2c2ccc(OCc3ccccc3)cc2)o1 [ORY-2001, vafidemstat]" measured_attribute=AUC(0-t) result=4570

###

Assay Overview: Rat pharmacokinetics
Type: in vivo, Wistar rats
Test Conditions: male, Wistar, rat, plasma, po, 10 mg/kg, Wistar rats, oral gavage 10 mg/kg; read-out: Plasma AUCinf
Measured Attribute: AUC(0-inf) (ng·h/mL)

molecule="Nc1nnc(CN[C@@H]2C[C@H]2c2ccc(OCc3ccccc3)cc2)o1 [ORY-2001, vafidemstat]" measured_attribute=AUC(0-inf) unit_info=ng·h/mL result=21000

###

System: THP-1 cells
Assay Overview: FACS based CD11B induction assay in THP-1
Type: cell-based
Test Conditions: Homo sapiens; THP-1, 96 hr; read-out: EC50 induction of differentiation marker CD11B
Description: Human leukemic THP1 (ACC-16) cells ([…]) were obtained from DMSZ and maintained in RPMI 1640 medium (Cat# R0883; Sigma Aldrich) supplemented with 10 % heat inactivated fetal bovine serum (FBS; Cat# F9665; Sigma-Aldrich) and 2 mM Glutamine (Cat# X0550 Biowest). THP-1 cells are acute leukemia cells with blast phenotype that can be induced to differentiate into a monocyte/macrophage phenotype by cell penetrant KDM1A inhibitors. […]
Measured Attribute: EC50 (nM)

compound="Nc1nnc(CN[C@@H]2C[C@H]2c2ccc(OCc3ccccc3)cc2)o1 [ORY-2001, vafidemstat]" result=21
